B1: Arabidopsis thaliana cryptochrome 2 (CRY2, UniProt Q96524), residues 1-535 fused after the Gal4 DNA-binding domain (Gal4BD-CRY2(535)); mutagenized window 321-412, Q96524 (parent)
chain: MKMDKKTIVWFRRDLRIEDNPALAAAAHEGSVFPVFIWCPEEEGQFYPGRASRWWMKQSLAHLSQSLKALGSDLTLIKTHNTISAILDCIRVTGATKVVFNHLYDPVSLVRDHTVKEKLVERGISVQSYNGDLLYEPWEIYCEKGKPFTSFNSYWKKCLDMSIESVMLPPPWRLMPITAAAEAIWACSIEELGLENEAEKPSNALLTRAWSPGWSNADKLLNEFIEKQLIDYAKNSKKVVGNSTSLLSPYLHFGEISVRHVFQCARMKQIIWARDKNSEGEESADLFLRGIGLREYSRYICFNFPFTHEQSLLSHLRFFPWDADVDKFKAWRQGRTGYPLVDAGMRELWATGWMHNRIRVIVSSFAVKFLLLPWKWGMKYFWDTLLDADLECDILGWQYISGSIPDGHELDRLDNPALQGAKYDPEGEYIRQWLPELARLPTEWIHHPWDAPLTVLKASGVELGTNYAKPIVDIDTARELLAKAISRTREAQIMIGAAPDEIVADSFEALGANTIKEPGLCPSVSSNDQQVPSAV

variants of: B1; assay: yeast two-hybrid growth selection (MaV203; Gal4BD-CRY2(1-535) library x Gal4AD-CIB1; URA3 reporter on SC -Trp/-Leu/-Ura) in the dark, deep sequencing before and after selection, Enrich2 scoring; three independent screens (one at 48 h, two …); settings: with CIB1 (CRYPTOCHROME-INTERACTING BASIC-HELIX-LOOP-HELIX 1), dark (no blue light), screens 1, 3 and 4, Svar > 0 = enriched under dark selection for CRY2-CIB1 two-hybrid growth (URA3 reporter), < 0 = depleted, relative to wild type (whose scores are 0). 'The Enrich2 software calculates, parent: 0, not an affinity, scale: Enrich2 score, numbering: uniprot, sequence starts at 1
The entries below come with measured enrichment values attached.
Lab note: record just the number, no unit beside it.

// below: answered variants
# MUTATION DESCRIPTOR, enrichment
rows = [
    ("T384A", 0.177),
    ("Y380H", -0.297),
    ("I400N", -0.48),
    ("L348F", 2.98),
    ("N356S", 0.0584),
    ("R346G", -1.54),
]

Entry "F328C" — recorded enrichment = -1.53

The recorded enrichment for "Y399N" is 2.41

Summary for this variant, "L371S" : enrichment is 1.98

Value of enrichment reported for the variant "I400F" is 1.95

What the record says about "G377V" : enrichment is -0.508

# variant "E347D" ; its enrichment = -0.854

According to the records, this variant "C392F" displays enrichment of -0.128

In plain terms, "G377R" has a documented enrichment of -1.08

Data point: "G344R" ; enrichment = -0.722

# enrichment of "A343D" = -0.747
